I'd appreciate it if you could supply Hepatotoxicity (severe hepatitis) values for the items below.
Conditions: human, Liver
Please state the value as a number alone, without comment.

Lab note: measured Hepatotoxicity (severe hepatitis) of CN(C)CCCn1c2c(c3ccccc31)CCCCCC2 was 0

Lab note: measured Hepatotoxicity (severe hepatitis) of O=C(OCC(O)CO)c1ccccc1Nc1ccnc2cc(Cl)ccc12 (stereo not drawn) was 7

Lab note: measured Hepatotoxicity (severe hepatitis) of C#C[C@]1(O)CC[C@H]2[C@@H]3CCC4=CC(=O)CC[C@@H]4[C@H]3CC[C@@]21CC was 0

Lab note: measured Hepatotoxicity (severe hepatitis) of CO[C@H]1/C=C/O[C@@]2(C)Oc3c(C)c(O)c4c(c3C2=O)C2=NC3(CCN(CC(C)C)CC3)NC2=C(NC(=O)/C(C)=C\C=C\[C@H](C)[C@H](O)[C@@H](C)[C@@H](O)[C@@H](C)[C@H](OC(C)=O)[C@@H]1C)C4=O was 1

Lab note: measured Hepatotoxicity (severe hepatitis) of CCc1cc(C(N)=S)ccn1 [ETHIONAMIDE] was 2

Lab note: measured Hepatotoxicity (severe hepatitis) of COC(=O)[C@H](c1ccccc1Cl)N1CCc2sccc2C1 was 0

Lab note: measured Hepatotoxicity (severe hepatitis) of CCCCc1oc2ccccc2c1C(=O)c1cc(I)c(OCCN(CC)CC)c(I)c1 was 14

Lab note: measured Hepatotoxicity (severe hepatitis) of CC1Cc2ccccc2N1NC(=O)c1ccc(Cl)c(S(N)(=O)=O)c1 (stereo not drawn) [INDAPAMIDE] was 1

Lab note: measured Hepatotoxicity (severe hepatitis) of NNc1nncc2ccccc12 [HYDRALAZINE] was 2

Lab note: measured Hepatotoxicity (severe hepatitis) of Cl[C@H]1[C@H](Cl)[C@@H](Cl)[C@@H](Cl)[C@H](Cl)[C@H]1Cl was 0

Lab note: measured Hepatotoxicity (severe hepatitis) of CC(=O)[C@@]1(O)CC[C@H]2[C@@H]3C[C@H](C)C4=CC(=O)CC[C@]4(C)[C@H]3CC[C@@]21C was 1

Lab note: measured Hepatotoxicity (severe hepatitis) of CC[C@H]1OC(=O)[C@H](C)C(=O)[C@H](C)[C@@H](O[C@@H]2O[C@H](C)C[C@H](N(C)C)[C@H]2O)[C@](C)(OC)C[C@@H](C)C(=O)[C@H](C)[C@H]2N(CCCCn3cnc(-c4cccnc4)c3)C(=O)O[C@]12C was 0

Lab note: measured Hepatotoxicity (severe hepatitis) of CN1C(C(=O)Nc2ccccn2)=C(O)c2sccc2S1(=O)=O was 0

Lab note: measured Hepatotoxicity (severe hepatitis) of CN(C)C(=N)N=C(N)N was 0

Lab note: measured Hepatotoxicity (severe hepatitis) of CCCC(=O)Nc1ccc(OCC(O)CNC(C)C)c(C(C)=O)c1 (stereo not drawn) was 0

Lab note: measured Hepatotoxicity (severe hepatitis) of O=C1NS(=O)(=O)c2ccccc21 was 0

Lab note: measured Hepatotoxicity (severe hepatitis) of CC(NC(C)(C)C)C(=O)c1cccc(Cl)c1 (stereo not drawn) was 1

Lab note: measured Hepatotoxicity (severe hepatitis) of CCN1CCN(C(=O)N[C@@H](C(=O)N[C@@H]2C(=O)N3C(C(=O)O)=C(CSc4nnnn4C)CS[C@H]23)c2ccc(O)cc2)C(=O)C1=O was 1

----------
Experiment: Times to onset, minimal and maximal, observed in the indexed observations. [column 'DELAI' in source]
Conditions: human
REPORTED METRIC: Hepatotoxicity (time to onset)

Lab note: measured Hepatotoxicity (time to onset) of COc1cc(C(=O)NCc2ccc(OCCN(C)C)cc2)cc(OC)c1OC [TRIMETHOBENZAMIDE] was 5 days

Lab note: measured Hepatotoxicity (time to onset) of CC1=C(/C=C/C(C)=C/C=C/C(C)=C/CO)C(C)(C)CCC1.O=C(O)Cc1cc(I)c(Oc2ccc(O)c(I)c2)c(I)c1 was 2 weeks - 9 years

Lab note: measured Hepatotoxicity (time to onset) of CC(c1cc2ccccc2s1)N(O)C(N)=O (centres undefined) [ZILEUTON] was 24 days

Lab note: measured Hepatotoxicity (time to onset) of CCCCN/C(=C1/C=C(Cl)C=CC1=O)c1ccccc1Cl was 1 month

Lab note: measured Hepatotoxicity (time to onset) of CCOC(=O)c1cncn1[C@H](C)c1ccccc1 [ETOMIDATE] was 3 days - 5 days

Lab note: measured Hepatotoxicity (time to onset) of COc1cnc(NS(=O)(=O)c2ccc(N)cc2)nc1 was 10 days

Lab note: measured Hepatotoxicity (time to onset) of C[C@@H]1C[C@H]2[C@@H]3CCC4=CC(=O)C=C[C@]4(C)[C@@]3(F)[C@@H](O)C[C@]2(C)[C@@]1(O)C(=O)CO [DEXAMETHASONE] was 8 days - 18 days

Lab note: measured Hepatotoxicity (time to onset) of NC(=O)NO [HYDROXYUREA] was 1 day - 3 months

Lab note: measured Hepatotoxicity (time to onset) of N=C(N)c1ccc(/C=C/c2ccc(C(=N)N)cc2O)cc1 [HYDROXYSTILBAMIDINE] was 1 month

----------
I'd appreciate it if you could supply Hepatotoxicity (moderate) values for the items below.
Conditions: human, serum

Lab note: measured Hepatotoxicity (moderate) of NC(=O)N1C(=O)/C(=C(\O)c2cccs2)c2cc(Cl)ccc21 was 3

Lab note: measured Hepatotoxicity (moderate) of N=C(N)NCC1COc2ccccc2O1 (stereo not drawn) was 2

Lab note: measured Hepatotoxicity (moderate) of CC(C)COCC(CN(Cc1ccccc1)c1ccccc1)N1CCCC1 (stereo not drawn) was 3

Lab note: measured Hepatotoxicity (moderate) of Cc1cccc(C)c1NC(=O)C(C)N (stereo not drawn) [TOCAINIDE] was 2

Lab note: measured Hepatotoxicity (moderate) of O=C1NS(=O)(=O)c2ccccc21 was 0

Lab note: measured Hepatotoxicity (moderate) of CC1(C)NC(=O)N(c2ccc([N+](=O)[O-])c(C(F)(F)F)c2)C1=O [NILUTAMIDE] was 5

Lab note: measured Hepatotoxicity (moderate) of CN[C@H](CC(C)C)C(=O)N[C@H]1C(=O)N[C@@H](CC(N)=O)C(=O)N[C@H]2C(=O)N[C@H]3C(=O)N[C@H](C(=O)N[C@H](C(=O)O)c4cc(O)cc(O)c4-c4cc3ccc4O)[C@H](O)c3ccc(c(Cl)c3)Oc3cc2cc(c3O[C@@H]2O[C@H](CO)[C@@H](O)[C@H](O)[C@H]2O[C@H]2C[C@](C)(N)[C@H](O)[C@H](C)O2)Oc2ccc(cc2Cl)[C@H]1O was 9

Lab note: measured Hepatotoxicity (moderate) of CN1CC[C@@H]2Nc3ccccc3[C@@H]2C1.Cl.Cl was 0

Lab note: measured Hepatotoxicity (moderate) of COc1ccc(CCN(C)CCCC(C#N)(c2cc(OC)c(OC)c(OC)c2)C(C)C)cc1OC (stereo not drawn) was 1

Lab note: measured Hepatotoxicity (moderate) of CCOc1ccc(NC(C)=O)cc1 was 2

Lab note: measured Hepatotoxicity (moderate) of COc1ccc2c(C(=S)N(C)CC(=O)O)cccc2c1C(F)(F)F was 7

Lab note: measured Hepatotoxicity (moderate) of Cc1ccc2c(-c3ccccc3)nc(=O)n(C(C)C)c2c1 was 1

Lab note: measured Hepatotoxicity (moderate) of CC(C)Cc1ccc(C(C)C(=O)O)cc1 (stereo not drawn) was 10

Lab note: measured Hepatotoxicity (moderate) of O=C1c2ccccc2C(=O)C1c1ccc(F)cc1 was 0

Lab note: measured Hepatotoxicity (moderate) of CN(C)CCOC1=Cc2ccccc2Sc2ccc(Cl)cc21 [ZOTEPINE] was 8

Lab note: measured Hepatotoxicity (moderate) of Cc1ccc(NC(=O)c2ccc(CN3CCN(C)CC3)cc2)cc1Nc1nccc(-c2cccnc2)n1 was 5

Lab note: measured Hepatotoxicity (moderate) of CN1CCN(CCCN2c3ccccc3Sc3ccc(Cl)cc32)CC1 was 0

Lab note: measured Hepatotoxicity (moderate) of CCOC(=O)NC1=C(N2CC2)C(=O)C(NC(=O)OCC)=C(N2CC2)C1=O was 5

----------
Experiment: Proposed mechanism(s) of liver damage. [column 'MEC' in source]
Conditions: human, Liver
REPORTED METRIC: Hepatotoxicity (mechanism)

# annotated cases, reported Hepatotoxicity (mechanism) shown
{"COMPOUND": "CC1=C(/C=C/C(C)=C/C=C/C(C)=C/CO)C(C)(C)CCC1.O=C(O)Cc1cc(I)c(Oc2ccc(O)c(I)c2)c(I)c1", "VALUE REPORTED": "Allergic"}
{"COMPOUND": "Cc1ncc(CO)c(CO)c1O [PYRIDOXINE]", "VALUE REPORTED": "Dose-dependant"}
{"COMPOUND": "CCn1cc(C(=O)O)c(=O)c2cc(F)c(N3CCNCC3)cc21 [NORFLOXACIN]", "VALUE REPORTED": "Allergic"}
{"COMPOUND": "COc1ccc2cc([C@H](C)C(=O)O)ccc2c1 [NAPROXEN]", "VALUE REPORTED": "Allergic"}
{"COMPOUND": "O=C(OCC(O)CO)c1ccccc1Nc1ccnc2cc(Cl)ccc12 (stereo not given) [GLAFENINE]", "VALUE REPORTED": "Allergic"}

Lab note: measured Hepatotoxicity (mechanism) of CNCCCC12CCC(c3ccccc31)c1ccccc12 [MAPROTILINE] was Dose-dependant

Lab note: measured Hepatotoxicity (mechanism) of Cc1ncc(C[n+]2csc(CCO)c2C)c(N)n1 [THIAMINE ION] was Dose-dependant

Lab note: measured Hepatotoxicity (mechanism) of O=C(O)COc1nn(Cc2ccccc2)c2ccccc12 [BENDAZAC] was Allergic

Lab note: measured Hepatotoxicity (mechanism) of CO[C@H]1/C=C/O[C@@]2(C)Oc3c(C)c(O)c4c(c3C2=O)C2=NC3(CCN(CC(C)C)CC3)NC2=C(NC(=O)/C(C)=C\C=C\[C@H](C)[C@H](O)[C@@H](C)[C@@H](O)[C@@H](C)[C@H](OC(C)=O)[C@@H]1C)C4=O [RIFABUTIN] was Dose-dependant

Lab note: measured Hepatotoxicity (mechanism) of Cc1cccc(Nc2ccccc2C(=O)O)c1C [MEFENAMIC ACID] was Allergic

Entry source: ChEMBL document CHEMBL3137667
